Target: Lanosterol 14α-demethylase (LMD, CYP51A1) (Candida glabrata)
Construct: tested against Candida strains via the determination of ergosterol production; endogenous in cells; host or cells: C. glabrata (ATCC 90030)
Sequence (P50859 whole entry): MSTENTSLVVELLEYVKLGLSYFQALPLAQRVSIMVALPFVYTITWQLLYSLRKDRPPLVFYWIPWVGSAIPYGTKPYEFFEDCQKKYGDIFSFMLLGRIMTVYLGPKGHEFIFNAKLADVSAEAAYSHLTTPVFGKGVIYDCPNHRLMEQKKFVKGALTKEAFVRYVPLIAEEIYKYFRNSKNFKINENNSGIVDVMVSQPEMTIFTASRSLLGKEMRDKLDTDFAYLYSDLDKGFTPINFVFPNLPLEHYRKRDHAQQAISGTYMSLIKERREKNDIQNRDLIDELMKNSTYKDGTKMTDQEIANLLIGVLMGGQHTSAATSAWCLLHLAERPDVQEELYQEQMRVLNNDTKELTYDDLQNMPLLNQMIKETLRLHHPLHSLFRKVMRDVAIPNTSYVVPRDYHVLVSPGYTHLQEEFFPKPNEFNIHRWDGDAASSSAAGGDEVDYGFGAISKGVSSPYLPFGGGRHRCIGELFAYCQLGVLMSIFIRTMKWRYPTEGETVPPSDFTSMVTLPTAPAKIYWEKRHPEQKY
Experiment: LDM (CYP51A1) inhibition by LC-MS-MS quantification of ergosterol level
Format: cell-based
Conditions: C. glabrata, 0.24 μg/mL; read-out: CYP51A1 Inhibition%
reportedMetric: inhibition at 0.24 µg/mL (%)

COc1ccc2nc(Cl)c(C=NNc3nc(-c4ccc(Cl)cc4)cs3)cc2c1 = 51.8
CC(=O)N1CCN(c2ccc(OCC3COC(Cn4ccnc4)(c4ccc(Cl)cc4Cl)O3)cc2)CC1 (stereo not shown) [ketoconazole, reference compound] = 61.9

a: COc1ccc2nc(Cl)c(C=NNc3nc(-c4ccc(C)cc4)cs3)cc2c1
b: COc1ccc2nc(Cl)c(/C=N/Nc3nc(-c4ccc(C#N)cc4)cs3)cc2c1
Which has the smaller recorded inhibition at 0.24 µg/mL, a or b ? // return label of chosen record
b
(b: 18.3%, a: 53.8%)
